Origin of values: the supplement of paper PMC6555819

# Test system: PPARg DBDmut IVT, anti-PPARg (DBD mutation: PPARg1 K132A/R137A, NR concentration 270 nM)
# method notes: PBM binding z-score (relative to random genomic background probes); higher = stronger binding; sequences stand for … in GC…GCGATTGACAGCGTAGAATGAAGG
Recorded PBM binding z-score by entry

Would you please look over these solved cases?
Tell me its PBM binding z-score given TTACCAAGGTGAAGGTCGTTGATCCCTCTGTAGA as the entry.
-0.236

Tell me its PBM binding z-score given CCTCCGAGGACAGAAGGTCAGAGCTGTCCGCTTT as the entry.
-1.76

Tell me its PBM binding z-score given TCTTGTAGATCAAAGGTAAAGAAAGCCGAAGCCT as the entry.
-0.451

Tell me its PBM binding z-score given GATACAGGGTCAAGGCCACAGTACGCGTATTGAT as the entry.
0.508

Tell me its PBM binding z-score given CCTACTGGGCCATTCAGAGGTGATTGATCATATG as the entry.
-0.0997

Others:
Tell me its PBM binding z-score given GATACTGGGTCAGCTAGAGGCCAGAGTATGGAAA as the entry.
-0.167

Tell me its PBM binding z-score given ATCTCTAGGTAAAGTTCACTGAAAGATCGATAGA as the entry.
1.51

Tell me its PBM binding z-score given AGAACGACGGCACGCTGAGTTGATAGCAGAGTAG as the entry.
-1.05
